System: M19-MEL melanoma
Assay: NCI tumour cell line growth inhibition, 48 h
The molecules listed here are annotated with their TGI.
readout: TGI

{"molecule": "CC1CC2(CCC1OCc1ccccc1)OCCO2 (configuration not stated)", "value": "> 100 µM"}
{"molecule": "COc1ccccc1NC(=O)C1=C(C)NC(C)=C(C(=O)Nc2ccccc2OC)C1c1cccc2c1OCO2", "value": "> 100 µM"}
{"molecule": "c1ccc(Nc2nnc(-c3nsc4ccccc34)o2)cc1", "value": "> 100 µM"}
{"molecule": "O=C(O)CCCNS(=O)(=O)c1ccc2ccccc2c1", "value": "> 100 µM"}
{"molecule": "CC(=O)Nc1ccc(-c2nnc(SCC(=O)Nc3ccccc3C)o2)cc1", "value": "> 100 µM"}
{"molecule": "COC(=O)[C@]12CC=C3O[C@@H]4OC5(CCCCC5)O[C@@H]4[C@H]3C1C(=O)C=CC2=O (some centres not stated)", "value": "30.9 µM"}
{"molecule": "NC(=O)c1c2c(cc3c(=O)c4ccccc4[nH]c13)CCCC2", "value": "> 100 µM"}
{"molecule": "CC(=O)O[C@H]1CC[C@@]2(C)C(=CC[C@@H]3C2CC[C@]2(C)Nc4[nH]ncc4CC32)C1 (some centres not stated)", "value": "60.1 µM"}
{"molecule": "COc1ccc(C(O)/C(=C/n2ccnc2)c2ccccc2)cc1OC (configuration not stated)", "value": "> 100 µM"}
{"molecule": "COc1ccccc1NC(=O)CC(=O)NNCC(=O)Nc1nnc(-c2ccccc2)o1", "value": "> 100 µM"}
{"molecule": "CCOC(=O)[C@H]1Nc2ccc(Cl)cc2[C@H]2c3ccccc3O[C@H]21", "value": "> 100 µM"}
{"molecule": "CCOC12SC(=Nc3ccc(C)cc3)NN1C(=S)N(C)N=C2C (configuration not stated)", "value": "> 100 µM"}

Attribution: PubChem BioAssay (NCI)
